molecular target: HLA-DR DRB1*0401 (DR4) (Homo sapiens, UniProt P01903+P01911, A100K/A169T/F76Y/I96L/K127E/L162R/M171V/N62H/P40V/Q125Y/R42H/S133A/S149N/S66Y/V115G/V209L/W38E); experiment: biochemical; type: binding; conditions: DRB1 *0401
No end group written: not given here.
Please use Condition met for IC50 under 4000 nM and Condition not met for everything else, ties included.

INSERT INTO results (sequence_input, category) VALUES
  ('KLKLYTGEATRTGDR', 'Condition met'),
  ('KATLQDIVLHLEPQN', 'Condition met'),
  ('AAKGIKIGFGIFA', 'Condition met'),
  ('YGAVVNLRKTVVNFP', 'Condition not met'),
  ('GVIYIMIISKKMMRK', 'Condition met'),
  ('LHLLSNDMCARAYSE', 'Condition not met'),
  ('PVIKNSIKLRL', 'Condition not met'),
  ('TCVLGKLSQELHKLQ', 'Condition not met'),
  ('RSSNCQSQKLLWQLN', 'Condition met'),
  ('GSHLVEALYLVTGER', 'Condition not met'),
  ('DDYVKQYTKQYTKQNTLKK', 'Condition met'),
  ('YLVTGERGFFYTPKT', 'Condition not met'),
  ('FLRSVFANSLVYGAS', 'Condition met'),
  ('AAFFFFFGGGGGA', 'Condition met'),
  ('TNKFSGYPLYHSVYE', 'Condition not met'),
  ('RPGLLGASVLGLDDI', 'Condition not met'),
  ('FTRGKRMSSLHLKRY', 'Condition met'),
  ('GQRVPVSHSFPHPLY', 'Condition not met');
